Source: BigSolDB 2.1

# Applied Conditions: in toluene, 278.05 K
Reported Property: solubility (mole fraction)

[
  {
    "Smiles Entry": "Brc1sc(Br)c(Br)c1Br",
    "Meas Value": 0.027
  }
]

---

# Applied Conditions: in THF, 293.15 K
Reported Property: solubility (mole fraction)

[
  {
    "Smiles Entry": "Brc1sc(Br)c(Br)c1Br",
    "Reported Property": "solubility (mole fraction)",
    "Meas Value": 0.0538
  }
]

---

# Applied Conditions: in chloroform, 320.15 K

[
  {
    "Smiles Entry": "Brc1sc(Br)c(Br)c1Br",
    "solubility (mole fraction)": 0.0781
  }
]
